- system name: Solute carrier family 2, facilitated glucose transporter member 1 (Homo sapiens, UniProt P11166)
- Sequence (P11166 whole entry): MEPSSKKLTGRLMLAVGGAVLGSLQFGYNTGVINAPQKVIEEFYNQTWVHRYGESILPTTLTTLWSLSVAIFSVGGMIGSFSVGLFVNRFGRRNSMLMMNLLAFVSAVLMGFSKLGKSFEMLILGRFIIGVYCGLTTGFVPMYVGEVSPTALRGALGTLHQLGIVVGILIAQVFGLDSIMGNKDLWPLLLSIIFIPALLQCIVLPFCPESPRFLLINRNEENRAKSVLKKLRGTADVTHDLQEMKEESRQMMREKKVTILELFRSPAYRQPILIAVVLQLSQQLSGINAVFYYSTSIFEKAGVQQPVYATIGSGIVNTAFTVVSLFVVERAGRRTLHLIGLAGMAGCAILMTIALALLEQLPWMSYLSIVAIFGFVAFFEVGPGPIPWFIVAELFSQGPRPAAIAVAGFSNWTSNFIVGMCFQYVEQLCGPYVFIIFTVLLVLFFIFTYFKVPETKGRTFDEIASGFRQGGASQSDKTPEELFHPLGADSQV
- measurement protocol: Inhibition of the Glucose Transporter (GLUT1, SLC2A1) as assessed by a FRET based flow cytometry assay using a genetically-encoded biosensor for measuring free glucose (FLII12Pglu-700uDelta6) in HEK293 JumpIN TRex SLC2A1 WT-OE cells (PubChem AID: 1794830)
result type: EC50

compound: OC[C@H]1OC(O)[C@H](O)[C@@H](O)[C@@H]1O (stereo partly specified)
result type: EC50
experimental value: 527 µM

----------
- system name: Solute carrier family 2, facilitated glucose transporter member 1 (Homo sapiens)
- measurement protocol: Inhibition of the Glucose Transporter (GLUT1, SLC2A1) as assessed by a FRET based flow cytometry assay using a genetically-encoded biosensor for measuring free glucose (FLII12Pglu-700uDelta6) in HEK293 JumpIN TRex SLC2A1 WT-OE cells (PubChem AID: 1794830)
pIC50: −log10 of the molar value.

smiles str: O=C(Oc1cccc(F)c1OC(=O)c1cccc(O)c1)c1cccc(O)c1
system name: Solute carrier family 2, facilitated glucose transporter member 1 (Homo sapiens)
pIC50: < 5.00
